assayed.target: HTTQ54-HAP40 (Homo sapiens, UniProt P23610+P42858, P42858:INS38QQQQQQQQQQQQQQQQQQQQQQQQQQQQQQQQQ)
Construct: full-length HTT with polyQ tract of 54 residues in complex with HAP40; C-terminal Avi-tag biotinylated; Sf9 baculovirus
test.summary: SPR
Excerpt: SPR on HTTQ54-HAP40 | binding affinity was indistinguishable between wild-type (Q23) HTT-HAP40 and its expanded form (Q54)
measure.name: Kd (µM)
Quick reminder: number only, in µM, skip the unit.

Recall and state the measured Kd for Cn1ncc2ccc(CNc3ccccc3C3CC3(F)F)cc21 (racemic) .
4

====

assayed.target: HTTQ23-HAP40 (HTT-HAP40) (Homo sapiens, UniProt P23610+P42858, P42858:INS38QQ)
Construct: full-length HTT (3144 aa, polyQ tract Q23) co-complex with HAP40, ~390 kDa; C-terminal Avi-tag biotinylated (BirA) for SPR; Sf9 baculovirus
Sequence (P42858 with tags, fused parts or gaps INS38QQ): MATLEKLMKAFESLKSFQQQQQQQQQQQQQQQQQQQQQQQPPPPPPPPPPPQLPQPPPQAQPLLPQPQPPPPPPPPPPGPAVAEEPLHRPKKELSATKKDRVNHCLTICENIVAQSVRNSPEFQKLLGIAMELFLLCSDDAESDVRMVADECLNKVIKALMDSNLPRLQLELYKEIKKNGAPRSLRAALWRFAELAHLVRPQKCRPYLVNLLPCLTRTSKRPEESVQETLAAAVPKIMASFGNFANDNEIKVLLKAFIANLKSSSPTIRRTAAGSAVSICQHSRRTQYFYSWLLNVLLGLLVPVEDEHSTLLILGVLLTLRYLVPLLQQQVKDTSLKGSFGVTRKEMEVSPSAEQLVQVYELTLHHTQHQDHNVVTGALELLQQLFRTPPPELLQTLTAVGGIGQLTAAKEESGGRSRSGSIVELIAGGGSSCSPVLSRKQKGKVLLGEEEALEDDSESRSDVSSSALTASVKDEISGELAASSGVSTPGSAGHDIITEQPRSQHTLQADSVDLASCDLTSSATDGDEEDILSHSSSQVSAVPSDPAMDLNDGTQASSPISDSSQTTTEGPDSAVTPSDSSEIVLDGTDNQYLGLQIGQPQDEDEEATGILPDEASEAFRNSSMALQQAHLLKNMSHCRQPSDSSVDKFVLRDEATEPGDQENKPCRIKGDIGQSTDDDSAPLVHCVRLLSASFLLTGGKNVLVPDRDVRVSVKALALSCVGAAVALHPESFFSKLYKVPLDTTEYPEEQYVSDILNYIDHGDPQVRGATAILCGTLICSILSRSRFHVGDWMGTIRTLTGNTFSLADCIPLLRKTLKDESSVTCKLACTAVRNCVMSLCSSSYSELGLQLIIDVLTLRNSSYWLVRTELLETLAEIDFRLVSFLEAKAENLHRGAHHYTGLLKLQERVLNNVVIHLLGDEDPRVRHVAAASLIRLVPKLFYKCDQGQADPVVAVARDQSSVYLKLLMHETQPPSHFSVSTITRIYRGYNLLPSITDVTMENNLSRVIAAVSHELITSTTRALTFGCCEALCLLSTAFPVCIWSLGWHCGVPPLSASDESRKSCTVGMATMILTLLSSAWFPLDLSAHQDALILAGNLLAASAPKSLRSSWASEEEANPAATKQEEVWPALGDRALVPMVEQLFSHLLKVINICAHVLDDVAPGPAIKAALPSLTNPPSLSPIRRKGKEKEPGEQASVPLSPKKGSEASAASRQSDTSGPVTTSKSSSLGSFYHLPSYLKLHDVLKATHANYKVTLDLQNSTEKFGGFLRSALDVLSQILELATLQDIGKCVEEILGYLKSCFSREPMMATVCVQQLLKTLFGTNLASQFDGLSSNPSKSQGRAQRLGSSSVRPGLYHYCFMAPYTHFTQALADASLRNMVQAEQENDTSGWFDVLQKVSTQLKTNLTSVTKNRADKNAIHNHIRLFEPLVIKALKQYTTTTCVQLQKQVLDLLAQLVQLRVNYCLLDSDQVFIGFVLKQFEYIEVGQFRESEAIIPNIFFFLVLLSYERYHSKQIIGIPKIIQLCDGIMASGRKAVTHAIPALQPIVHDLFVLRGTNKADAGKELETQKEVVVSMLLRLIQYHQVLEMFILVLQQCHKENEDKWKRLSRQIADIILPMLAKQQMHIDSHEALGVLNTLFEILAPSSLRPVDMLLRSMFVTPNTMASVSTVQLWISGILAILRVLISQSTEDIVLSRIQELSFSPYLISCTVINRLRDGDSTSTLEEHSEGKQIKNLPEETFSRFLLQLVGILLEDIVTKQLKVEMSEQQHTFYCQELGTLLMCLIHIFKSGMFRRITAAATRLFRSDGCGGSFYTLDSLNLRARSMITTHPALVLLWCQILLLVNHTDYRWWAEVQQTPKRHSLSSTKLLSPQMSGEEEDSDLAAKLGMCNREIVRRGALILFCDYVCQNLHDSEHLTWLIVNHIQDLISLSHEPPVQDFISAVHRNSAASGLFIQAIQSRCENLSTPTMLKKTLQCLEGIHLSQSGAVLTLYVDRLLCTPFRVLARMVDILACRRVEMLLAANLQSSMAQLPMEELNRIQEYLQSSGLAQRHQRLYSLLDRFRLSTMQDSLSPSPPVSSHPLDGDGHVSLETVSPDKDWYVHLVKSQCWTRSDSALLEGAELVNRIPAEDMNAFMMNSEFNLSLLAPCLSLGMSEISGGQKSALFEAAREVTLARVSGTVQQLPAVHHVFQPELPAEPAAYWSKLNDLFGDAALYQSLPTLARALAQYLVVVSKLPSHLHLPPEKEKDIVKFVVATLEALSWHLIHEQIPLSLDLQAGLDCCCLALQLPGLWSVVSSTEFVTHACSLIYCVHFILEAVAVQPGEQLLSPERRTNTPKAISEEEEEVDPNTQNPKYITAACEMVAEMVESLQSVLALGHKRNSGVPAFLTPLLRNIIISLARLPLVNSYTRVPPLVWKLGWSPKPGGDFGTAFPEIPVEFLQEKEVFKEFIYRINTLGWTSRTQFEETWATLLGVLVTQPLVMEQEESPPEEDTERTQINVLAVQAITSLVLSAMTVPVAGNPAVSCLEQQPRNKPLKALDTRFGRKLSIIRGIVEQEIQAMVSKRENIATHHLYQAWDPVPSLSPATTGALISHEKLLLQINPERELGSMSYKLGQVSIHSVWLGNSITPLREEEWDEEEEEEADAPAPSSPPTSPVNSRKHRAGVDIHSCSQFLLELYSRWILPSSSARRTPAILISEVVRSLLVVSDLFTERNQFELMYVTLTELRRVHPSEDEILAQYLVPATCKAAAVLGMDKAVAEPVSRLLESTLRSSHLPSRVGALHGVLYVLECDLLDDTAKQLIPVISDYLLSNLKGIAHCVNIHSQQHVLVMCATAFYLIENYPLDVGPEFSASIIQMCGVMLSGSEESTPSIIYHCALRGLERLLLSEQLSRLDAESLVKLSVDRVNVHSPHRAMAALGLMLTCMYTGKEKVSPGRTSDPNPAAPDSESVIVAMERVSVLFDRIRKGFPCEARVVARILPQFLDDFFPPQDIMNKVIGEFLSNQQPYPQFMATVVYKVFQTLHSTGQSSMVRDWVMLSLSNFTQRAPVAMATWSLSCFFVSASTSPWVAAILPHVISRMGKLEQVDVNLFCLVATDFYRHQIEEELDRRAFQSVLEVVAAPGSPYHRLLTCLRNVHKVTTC
Sequence (P23610 whole entry, stated change not applied): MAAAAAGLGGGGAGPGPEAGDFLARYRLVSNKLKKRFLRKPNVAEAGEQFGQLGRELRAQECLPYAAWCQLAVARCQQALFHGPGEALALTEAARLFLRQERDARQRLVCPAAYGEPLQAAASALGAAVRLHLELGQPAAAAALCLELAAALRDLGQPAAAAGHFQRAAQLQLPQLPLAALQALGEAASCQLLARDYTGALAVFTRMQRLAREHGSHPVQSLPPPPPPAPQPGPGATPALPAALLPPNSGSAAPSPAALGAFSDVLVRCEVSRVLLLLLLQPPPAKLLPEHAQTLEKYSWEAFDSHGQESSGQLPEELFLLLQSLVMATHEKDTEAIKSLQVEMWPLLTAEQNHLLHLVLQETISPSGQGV
test.summary: SPR, steady state, […] model
Assay type: binding
stated.conditions: read-out: apparent KD
Examples of compounds with documented pKd follow.
FYI, pKd means -log10 of a concentration in mol per litre.

[[record]]
compound = "Cn1ncc2ccc(CNc3ccccc3[C@H]3CC3(F)F)cc21 (single isomer, unassigned; peak 2) [compound 1, Peak 2 of AS-MS Hit 1]"
recorded_number = 5.40


With those in mind, consider the next compound.
Recall and state the measured pKd for Cn1ncc2ccc(CNc3ccccc3C3CC3(F)F)cc21 (racemic) .
5.30

Data credit: paper doi:10.1101/2025.11.21.689733v1
